methodDescription: Inhibition of NADH-ubiquinone oxidoreductase activity in bovine heart submitochondrial particles
Set-up: species or system Bos taurus
Recorded measurements of IC50, one per entry
measureName: IC50 (nM)

>>> df
                                   molecule  result
0  CCCCCCCCCCCC[C@H](O)[C@@H]1CC[C@H]([C@H](O)CCCCCCCCCCCCC2=C[C@H](C)OC2=O)O1 [CIS-SOLAMIN]     2.6
1  CCCCCCCCCCCCCCCC[C@@H](O)[C@H](O)CCCCCCCCCCCCCCC1=C[C@H](C)OC1=O     690
2  CCCCCCCCCC[C@@H](O)[C@@H]1CC[C@@H]([C@@H]2CC[C@@H]([C@H](O)CCCCCCCCCC(O)CC3=CC(C)OC3=O)O2)O1 (stereo not given in full)    0.83
3  CCCCCCCCCCCCCCCC[C@H](O)[C@@H](O)CCCCCCCCCCCCCCC1=C[C@H](C)OC1=O     580
4  CCCCCCCCCCCC[C@H](O)[C@@H](O)CC[C@@H](O)[C@H](O)CCCCCCCCCCCCC1=C[C@H](C)OC1=O [DIHYDROXY-COHIBIN A]      20
